Catalogue of Binding response readings, one per entry.
target: T1, human LAP-TGFB1 Fc fusion (human); test: BLI off-rate screen
T1 construct: also called human LAP-TGFβ1-Fc; human LAP-TGFβ-Fc isoform 1
T1 sequence (chain, as listed by the source limits assumed): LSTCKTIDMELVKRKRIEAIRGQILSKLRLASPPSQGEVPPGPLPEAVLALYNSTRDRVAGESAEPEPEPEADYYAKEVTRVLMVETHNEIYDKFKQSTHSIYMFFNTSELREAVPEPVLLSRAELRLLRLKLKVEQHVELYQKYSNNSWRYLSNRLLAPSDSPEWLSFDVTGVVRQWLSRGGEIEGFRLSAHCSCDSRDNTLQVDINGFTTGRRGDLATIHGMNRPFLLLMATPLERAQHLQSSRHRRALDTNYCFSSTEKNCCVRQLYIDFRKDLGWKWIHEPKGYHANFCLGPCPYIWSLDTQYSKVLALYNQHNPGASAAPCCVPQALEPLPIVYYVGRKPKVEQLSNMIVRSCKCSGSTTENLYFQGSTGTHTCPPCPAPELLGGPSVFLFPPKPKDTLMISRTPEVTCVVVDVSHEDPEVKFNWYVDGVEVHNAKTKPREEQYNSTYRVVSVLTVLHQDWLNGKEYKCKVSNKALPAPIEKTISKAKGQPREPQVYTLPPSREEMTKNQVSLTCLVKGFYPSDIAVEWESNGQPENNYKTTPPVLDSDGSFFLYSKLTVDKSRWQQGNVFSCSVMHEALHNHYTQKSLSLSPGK
State just the number; it will be interpreted in nm.

Sure, the documented Binding response for VL A25Y (39BIT) (Fab, V domains shown) VH: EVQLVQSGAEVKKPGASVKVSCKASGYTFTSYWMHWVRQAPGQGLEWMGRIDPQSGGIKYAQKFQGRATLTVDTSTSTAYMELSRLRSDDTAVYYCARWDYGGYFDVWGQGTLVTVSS VL: DIQMTQSPSSLSASVGDRVTITCRYSQDITNYLNWYQQKPGKAVKLLIYYTSRLHSGVPSRFSGSGSGTDYTLTISSLQPEDFATYFCQQGDTLPWTFGQGTKLEIKR is 0.043

Sure, the documented Binding response for VL T93Y (58BIT) (Fab, V domains shown) VH: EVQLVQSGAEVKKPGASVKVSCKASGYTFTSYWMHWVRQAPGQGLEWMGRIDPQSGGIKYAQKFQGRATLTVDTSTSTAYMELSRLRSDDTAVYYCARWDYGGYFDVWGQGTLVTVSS VL: DIQMTQSPSSLSASVGDRVTITCRASQDITNYLNWYQQKPGKAVKLLIYYTSRLHSGVPSRFSGSGSGTDYTLTISSLQPEDFATYFCQQGDYLPWTFGQGTKLEIKR is 0.586

Sure, the documented Binding response for VL G91Y (56BIT) (Fab, V domains shown) VH: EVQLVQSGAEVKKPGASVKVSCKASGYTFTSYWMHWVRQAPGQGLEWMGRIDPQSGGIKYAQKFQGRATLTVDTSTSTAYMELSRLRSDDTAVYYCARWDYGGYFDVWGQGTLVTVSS VL: DIQMTQSPSSLSASVGDRVTITCRASQDITNYLNWYQQKPGKAVKLLIYYTSRLHSGVPSRFSGSGSGTDYTLTISSLQPEDFATYFCQQYDTLPWTFGQGTKLEIKR is 0.044
